Biological target: human PCSK9 (Homo sapiens)
Assay: PCSK9 ligand binding assay (TR-FRET): interference with binding of human PCSK9 to human LDLR
Conditions: PCSK9 FRET assay, efficacy (Amax); 0% = DMSO, 100% = 1 uM unlabeled human PCSK9
Bridge positions count the residues as written; N and C are the ends. Square brackets hold non-standard residues; d marks the D form. Peptide text beside a SMILES is read from it. Bip = N[C@@H](Cc1ccc(-c2ccccc2)cc1)C(=O)O; NMeF = CN[C@@H](Cc1ccccc1)C(=O)O; NMeE = CN[C@@H](CCC(=O)O)C(=O)O

Compound	Maximum % inhibition [%]
CC(C)[C@@H]1NC(=O)[C@H](Cc2ccccc2)NC(=O)CSC[C@@H](C(=O)NCC(N)=O)NC(=O)[C@@H]2CCCN2C(=O)[C@H](CO)NC(=O)[C@H](CC(N)=O)NC(=O)[C@H](CCC(=O)O)N(C)C(=O)[C@H](Cc2ccc(-c3ccccc3)cc2)NC(=O)[C@H](Cc2ccccc2)N(C)C(=O)[C@H](CO)NC(=O)[C@H]([C@@H](C)O)NC(=O)[C@H]([C@@H](C)O)NC(=O)[C@H](CC(=O)O)NC1=O [Example 1-1] ({CH2CO}-FVDTTS[NMeF][Bip][NMeE]NSPCG-NH2; thioether N-13)	65

* * *

Target: human PCSK9 (Homo sapiens)
Test: PCSK9 ligand binding assay (TR-FRET): interference with binding of human PCSK9 to human LDLR
Settings: TR-FRET; Human PCSK9 Alexa Fluor 647 and Human LDLR extracellular domain-Europium Kryptate
pIC50: −log10 of the molar value. Bridge positions count the residues as written; N and C are the ends. Square brackets hold non-standard residues; d marks the D form. Peptide text beside a SMILES is read from it. Bip = N[C@@H](Cc1ccc(-c2ccccc2)cc1)C(=O)O; Phe(3-F) = N[C@@H](Cc1cccc(F)c1)C(=O)O; NMeA = CN[C@@H](C)C(=O)O
Measured quantity: pIC50

Compound	Subject of test	Measured quantity	Reading
C[C@@H]1NC(=O)[C@H](C)N(C)C(=O)[C@H](Cc2ccc(-c3ccccc3)cc2)NC(=O)[C@H](C)N(C)C(=O)[C@H](Cc2ccccc2)NC(=O)[C@H]([C@@H](C)O)NC(=O)[C@H]([C@@H](C)O)NC(=O)[C@H](CC(N)=O)NC(=O)[C@H](CCC(=O)O)NC(=O)[C@H](Cc2ccccc2)NC(=O)CSC[C@@H](C(=O)NCC(N)=O)NC(=O)[C@@H]2CCCN2C(=O)[C@H](CO)NC1=O [Example 1-27] ({CH2CO}-FENTTF[NMeA][Bip][NMeA]ASPCG-NH2; thioether N-13)	human PCSK9 (Homo sapiens)	pIC50	6.39
CC(C)[C@@H]1NC(=O)[C@H](Cc2ccccc2)NC(=O)CSC[C@@H](C(=O)NCC(N)=O)NC(=O)[C@@H]2CCCN2C(=O)[C@H](CO)NC(=O)[C@H](CCCCN)NC(=O)[C@H](C)N(C)C(=O)[C@H](Cc2ccc(-c3ccccc3)cc2)NC(=O)[C@H](C)N(C)C(=O)[C@H](CO)NC(=O)[C@H]([C@@H](C)O)NC(=O)[C@H]([C@@H](C)O)NC(=O)[C@H](CC(=O)O)NC1=O [Example 1-7] ({CH2CO}-FVDTTS[NMeA][Bip][NMeA]KSPCG-NH2; thioether N-13)	human PCSK9 (Homo sapiens)	pIC50	6.39
CC(C)[C@@H]1NC(=O)[C@H](Cc2ccccc2)NC(=O)CSC[C@@H](C(=O)NCC(N)=O)NC(=O)[C@@H]2CCCN2C(=O)[C@H](CCCNC(=N)N)NC(=O)[C@H](CC(=O)O)NC(=O)[C@H](C)N(C)C(=O)[C@H](Cc2cccc(F)c2)NC(=O)[C@H](C)N(C)C(=O)[C@H](Cc2ccc(-c3ccccc3)cc2)NC(=O)[C@H]([C@@H](C)O)NC(=O)[C@H]([C@@H](C)O)NC(=O)[C@H](CO)NC1=O [Example 1-15] ({CH2CO}-FVSTT[Bip][NMeA][Phe(3-F)][NMeA]DRPCG-NH2; thioether N-13)	human PCSK9 (Homo sapiens)	pIC50	7.92

* * *

Each record here notes measured Maximum % inhibition.
Molecular target: human PCSK9 (Homo sapiens, UniProt Q8NBP7)
Sequence (Q8NBP7 153-692): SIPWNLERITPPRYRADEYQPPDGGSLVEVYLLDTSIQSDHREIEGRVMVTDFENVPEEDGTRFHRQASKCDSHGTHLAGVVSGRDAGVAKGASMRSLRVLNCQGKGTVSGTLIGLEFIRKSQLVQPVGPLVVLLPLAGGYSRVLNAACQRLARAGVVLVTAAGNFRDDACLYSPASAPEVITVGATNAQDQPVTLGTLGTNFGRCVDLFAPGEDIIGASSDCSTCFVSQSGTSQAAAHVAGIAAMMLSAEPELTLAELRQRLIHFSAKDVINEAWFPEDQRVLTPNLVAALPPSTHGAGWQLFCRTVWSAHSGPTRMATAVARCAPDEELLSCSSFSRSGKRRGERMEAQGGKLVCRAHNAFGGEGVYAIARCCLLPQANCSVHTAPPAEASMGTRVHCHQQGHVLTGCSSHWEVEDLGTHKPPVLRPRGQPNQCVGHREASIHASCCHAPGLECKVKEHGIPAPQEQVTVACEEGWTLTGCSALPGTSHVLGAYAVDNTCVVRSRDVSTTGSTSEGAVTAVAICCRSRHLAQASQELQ
Sequence (Q8NBP7 31-152 partner limits assumed): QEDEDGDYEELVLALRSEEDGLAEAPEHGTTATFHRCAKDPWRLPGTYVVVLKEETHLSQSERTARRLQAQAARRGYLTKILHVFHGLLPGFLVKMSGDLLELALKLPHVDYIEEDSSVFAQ
Assay: PCSK9 ligand binding assay (TR-FRET): interference with binding of human PCSK9 to human LDLR
Conditions: PCSK9 FRET assay, efficacy (Amax); 0% = DMSO, 100% = 1 uM unlabeled human PCSK9
Bridge positions count the residues as written; N and C are the ends. Square brackets hold non-standard residues; d marks the D form. Peptide text beside a SMILES is read from it. Bip = N[C@@H](Cc1ccc(-c2ccccc2)cc1)C(=O)O; Phe(4-Cl) = N[C@@H](Cc1ccc(Cl)cc1)C(=O)O; NMeA = CN[C@@H](C)C(=O)O

Compound	Maximum % inhibition / %
CC(C)[C@@H]1NC(=O)[C@H](Cc2ccccc2)NC(=O)CSC[C@@H](C(=O)NCC(N)=O)NC(=O)[C@@H]2CCCN2C(=O)[C@H](CO)NC(=O)[C@H](CCC(=O)O)NC(=O)[C@H](C)N(C)C(=O)[C@H](Cc2ccc(-c3ccccc3)cc2)NC(=O)[C@H](C)N(C)C(=O)[C@H](Cc2ccc(-c3ccccc3)cc2)NC(=O)[C@H]([C@@H](C)O)NC(=O)[C@H]([C@@H](C)O)NC(=O)[C@H](CO)NC1=O [Example 1-25] ({CH2CO}-FVSTT[Bip][NMeA][Bip][NMeA]ESPCG-NH2; thioether N-13)	68
CC(C)[C@@H]1NC(=O)[C@H](Cc2ccccc2)NC(=O)CSC[C@@H](C(N)=O)NC(=O)[C@@H]2CCCN2C(=O)[C@H](C)NC(=O)[C@@H]2CCCN2C(=O)[C@H](C)N(C)C(=O)[C@H](Cc2ccc(Cl)cc2)NC(=O)[C@H](C)N(C)C(=O)[C@H](Cc2ccccc2)NC(=O)[C@H]([C@@H](C)O)NC(=O)[C@H]([C@@H](C)O)NC(=O)[C@@H]2CCCN2C1=O [Example 2-1] ({CH2CO}-FVPTTF[NMeA][Phe(4-Cl)][NMeA]PAPC-NH2; thioether N-13)	50
C[C@@H]1NC(=O)[C@H](C)N(C)C(=O)[C@H](Cc2ccc(-c3ccccc3)cc2)NC(=O)[C@H](C)N(C)C(=O)[C@H](Cc2ccccc2)NC(=O)[C@H]([C@@H](C)O)NC(=O)[C@H]([C@@H](C)O)NC(=O)[C@H](CC(N)=O)NC(=O)[C@H](CCC(=O)O)NC(=O)[C@H](Cc2ccccc2)NC(=O)CSC[C@@H](C(=O)NCC(N)=O)NC(=O)[C@@H]2CCCN2C(=O)[C@H](CO)NC1=O [Example 1-27] ({CH2CO}-FENTTF[NMeA][Bip][NMeA]ASPCG-NH2; thioether N-13)	55
CC(C)[C@@H]1NC(=O)[C@H](Cc2ccccc2)NC(=O)CSC[C@@H](C(=O)NCC(N)=O)NC(=O)[C@@H]2CCCN2C(=O)[C@H](CO)NC(=O)[C@H](CCC(=O)O)NC(=O)[C@H](C)N(C)C(=O)[C@H](Cc2ccc(-c3ccccc3)cc2)NC(=O)[C@H](C)N(C)C(=O)[C@H](Cc2ccc(-c3ccccc3)cc2)NC(=O)[C@H]([C@@H](C)O)NC(=O)[C@H]([C@@H](C)O)NC(=O)[C@H](CC(=O)O)NC1=O [Example 1-10] ({CH2CO}-FVDTT[Bip][NMeA][Bip][NMeA]ESPCG-NH2; thioether N-13)	90

* * *

Biological target: UniProt:Q8NBP7
Assay: PCSK9 ligand binding assay (TR-FRET): interference with binding of human PCSK9 to human LDLR
Details: PCSK9 FRET assay, efficacy (Amax); 0% = DMSO, 100% = 1 uM unlabeled human PCSK9
Bridge positions count the residues as written; N and C are the ends. Square brackets hold non-standard residues; d marks the D form. Peptide text beside a SMILES is read from it. ξ: configuration not given here. Bip = N[C@@H](Cc1ccc(-c2ccccc2)cc1)C(=O)O; Phe(4-Cl) = N[C@@H](Cc1ccc(Cl)cc1)C(=O)O; NMeF = CN[C@@H](Cc1ccccc1)C(=O)O; NMeA = CN[C@@H](C)C(=O)O; ξD = NC(CC(=O)O)C(=O)O
Classification field: enter TRUE for Maximum % inhibition values not below 60%, FALSE for values below it.

Compound	Assigned class
CC(C)[C@@H]1NC(=O)[C@H](Cc2ccccc2)NC(=O)CSC[C@@H](C(N)=O)NC(=O)[C@@H]2CCCN2C(=O)[C@H](C)NC(=O)C(CC(=O)O)NC(=O)[C@H](C)N(C)C(=O)[C@H](Cc2ccc(Cl)cc2)NC(=O)[C@H](C)N(C)C(=O)[C@H](Cc2ccccc2)NC(=O)[C@H]([C@@H](C)O)NC(=O)[C@H]([C@@H](C)O)NC(=O)[C@@H]2CCCN2C1=O (stereo partly drawn) [Example 2-2] ({CH2CO}-FVPTTF[NMeA][Phe(4-Cl)][NMeA][ξD]APC-NH2; thioether N-13)	TRUE
CC(C)[C@@H]1NC(=O)[C@H](Cc2ccccc2)NC(=O)CSC[C@@H](C(=O)NCC(N)=O)NC(=O)[C@@H]2CCCN2C(=O)[C@H](C)NC(=O)[C@H](CCCCN)NC(=O)[C@H](C)N(C)C(=O)[C@H](Cc2ccc(-c3ccccc3)cc2)NC(=O)[C@H](C)N(C)C(=O)[C@H](Cc2ccccc2)NC(=O)[C@H]([C@@H](C)O)NC(=O)[C@H]([C@@H](C)O)NC(=O)[C@H](CC(N)=O)NC1=O [Example 1-23] ({CH2CO}-FVNTTF[NMeA][Bip][NMeA]KAPCG-NH2; thioether N-13)	FALSE
CC(C)[C@@H]1NC(=O)[C@H](Cc2ccccc2)NC(=O)CSC[C@@H](C(=O)NCC(N)=O)NC(=O)[C@@H]2CCCN2C(=O)[C@H](C)NC(=O)[C@H](CCC(N)=O)NC(=O)[C@H](C)N(C)C(=O)[C@H](Cc2ccc(-c3ccccc3)cc2)NC(=O)[C@H](Cc2ccccc2)N(C)C(=O)[C@H](C)NC(=O)[C@H]([C@@H](C)O)NC(=O)[C@H]([C@@H](C)O)NC(=O)[C@H](CC(N)=O)NC1=O [Example 1-18] ({CH2CO}-FVNTTA[NMeF][Bip][NMeA]QAPCG-NH2; thioether N-13)	FALSE
CC(C)[C@@H]1NC(=O)[C@H](Cc2ccccc2)NC(=O)CSC[C@@H](C(=O)NCC(N)=O)NC(=O)[C@@H]2CCCN2C(=O)[C@H](CO)NC(=O)[C@H](CC(N)=O)NC(=O)[C@H](C)N(C)C(=O)[C@H](Cc2ccc(-c3ccccc3)cc2)NC(=O)[C@H](Cc2ccccc2)N(C)C(=O)[C@H](CO)NC(=O)[C@H]([C@@H](C)O)NC(=O)[C@H]([C@@H](C)O)NC(=O)[C@H](CC(=O)O)NC1=O [Example 1-3] ({CH2CO}-FVDTTS[NMeF][Bip][NMeA]NSPCG-NH2; thioether N-13)	FALSE
